// provenance: paper PMC8233319

target.under.test: p53 (mutant R248W DBD-derived peptide pR248W) (Homo sapiens, UniProt P04637, R248W)
Construct: gene TP53
assay.explanation: intrinsic tryptophan fluorescence quenching titration (also HSQC NMR on R248W DBD and CETSA in MIA PaCa-2 cells)
Type: binding
readout.kind: Kd (nM)
All answers are understood in nM, so give the number only.

Query (compound): `CCCCOc1nc(C(=O)Nc2ccc(C(=O)Nc3ccc(C(=O)OC)nc3OCCCN)nc2OCCCN)ccc1[N+](=O)[O-]` ; field requested: Kd
366

* * *

target.under.test: p53 (mutant R248W DBD-derived peptide pR248W) (Homo sapiens, UniProt P04637, R248W)
Construct: gene TP53
assay.explanation: intrinsic tryptophan fluorescence quenching titration (weak; no CETSA stabilization of R248W)
Assay type: binding
readout.kind: pKd
Schema: pKd number; meaning minus log10 of the concentration expressed in molar units.

Query (molecule): `COC(=O)c1ccc(NC(=O)c2ccc(NC(=O)c3ccc([N+](=O)[O-])c(OCC(=O)O)n3)c(OCc3ccccc3)n2)c(OCC(=O)O)n1` ; field requested: pKd
4.81
